Reference for the values: patent US8828985B2

STUDY TARGET: human 11β-HSD1 (Homo sapiens, UniProt P28845)
Sequence (P28845 whole entry): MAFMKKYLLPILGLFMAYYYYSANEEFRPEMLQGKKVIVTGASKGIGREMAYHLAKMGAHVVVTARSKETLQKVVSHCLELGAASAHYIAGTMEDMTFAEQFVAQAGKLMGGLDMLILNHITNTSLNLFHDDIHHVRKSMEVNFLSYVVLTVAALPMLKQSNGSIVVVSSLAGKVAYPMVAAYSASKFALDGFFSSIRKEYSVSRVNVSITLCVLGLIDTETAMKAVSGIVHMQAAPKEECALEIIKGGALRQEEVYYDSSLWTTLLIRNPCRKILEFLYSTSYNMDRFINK
MEASUREMENT NOTES: biochemical
TEST CONTEXT: 1.5 h, read-out: Biological Test Example 2 Average % inhibition at 100 nm, at 100 nm
ENDPOINT: inhibition at 0.1 µM (%)

1 = Cc1nc(N[C@@H]2CCN(C(=O)O[C@H]3C4CC5CC3C[C@](O)(C5)C4)C2)ccc1C#N [Example 84]
2 = CN(C(=O)c1cccnc1N[C@@H]1CCN(C(=O)O[C@H]2C3CC4CC2C[C@](O)(C4)C3)C1)C(C)(C)C [Example 100]
3 = N#Cc1ccc(N[C@@H]2CCN(C(=O)OC3C4CC5CC3CC(C(=O)NC3CC3)(C5)C4)C2)nc1 (single isomer, unassigned) [Example 118 Isomer 1]
Order these molecules (above) by their inhibition at 0.1 µM, from the smallest value upward. Please list the labels according to the requested order.
3, 2, 1

I = N#Cc1ccc(N2CCCC23CCN(C(=O)O[C@H]2C4CC5CC2C[C@](C(N)=O)(C5)C4)C3)nc1 (some centres unmarked) [Example 75]
II = CN(C)C(=O)c1cccnc1N[C@@H]1CCN(C(=O)O[C@H]2C3CC4CC2C[C@](O)(C4)C3)C1 [Example 89]
III = O=C(O)c1cnc(N[C@@H]2CCN(C(=O)O[C@H]3C4CC5CC3C[C@](O)(C5)C4)C2)nc1 [Example 108]
IV = O=C(O[C@H]1C2CC3CC1C[C@](O)(C3)C2)N1CC[C@@H](Nc2ncnc3ccccc23)C1 [Example 85]
Sort by inhibition at 0.1 µM, descending. Form entry: labels listed in requested order.
I, IV, II, III
(I: 98.8%, IV: 64%, II: 39.1%, III: 14.2%)

a = CC1(Nc2ncccc2C#N)CCN(C(=O)O[C@H]2C3CC4CC2C[C@](C(N)=O)(C4)C3)C1 (some centres unmarked) [Example 67]
b = NC(=O)c1cnc(N[C@@H]2CCN(C(=O)O[C@H]3C4CC5CC3C[C@](O)(C5)C4)C2)nc1 [Example 109]
c = CNC(=O)c1cnc(N[C@@H]2CCN(C(=O)O[C@H]3C4CC5CC3C[C@](O)(C5)C4)C2)nc1 [Example 110]
Form: Sort by [inhibition at 0.1 µM] Order [ ascending ] Answer with the labels in sequence, matching the requested order.
c, b, a
(c: 32.2%, b: 50.1%, a: 97%)

---

STUDY TARGET: human 11β-HSD1 (Homo sapiens)
MEASUREMENT NOTES: biochemical
TEST CONTEXT: Biological Test Example 2 IC50 Range, microsomes from CHO cells overexpressing human 11β-HSD1, SPA
ENDPOINT: IC50

Solved entries:
>>> result_value("CC(C)(C)OC(=O)NC1(Cc2ccccc2)CCN(C(=O)OC2C3CC4CC2CC(C(N)=O)(C4)C3)C1 (single isomer, unassigned) [Example 29 Isomer 1]")
"> 100 nM"
>>> result_value("N#Cc1ccc(N[C@@H]2CCN(C(=O)O[C@H]3C[C@H]4CC[C@@H](C3)N4C(N)=O)C2)nc1")
"> 100 nM"
>>> result_value("CN(C(=O)c1cccnc1N[C@@H]1CCN(C(=O)O[C@H]2C3CC4CC2C[C@](O)(C4)C3)C1)C(C)(C)C")
"< 100 nM"
>>> result_value("O=C(NC1CC1)c1ccc2nc(N[C@@H]3CCN(C(=O)O[C@H]4C5CC6CC4C[C@](O)(C6)C5)C3)sc2c1")
"< 100 nM"
>>> result_value("Cc1nc(N[C@@H]2CCN(C(=O)O[C@H]3C4CC5CC3C[C@](O)(C5)C4)C2)ccc1C#N")
"< 100 nM"

# IC50 (compound: CC(C)COC(=O)N[C@@H]1CCN(C(=O)NC2C3CC4CC(C3)CC2C4)C1 (stereo partly shown) ) is < 100 nM

Reported IC50 ( CC1(NC(=O)OC(C)(C)C)CCN(C(=O)OC2C3CC4CC2CC(C(N)=O)(C4)C3)C1 (single isomer, unassigned) [Example 22 Isomer 1] ) = > 100 nM
